# TEST_SYSTEM: NMDA (NR1/NR2A) receptors (Rattus norvegicus, UniProt P35439+Q00959)
# Construct: expressed in transfected cells; host or cells: Xenopus laevis oocytes (RNA injection, 1:1)
# Sequence (Q00959 23-1464, other chains not shown): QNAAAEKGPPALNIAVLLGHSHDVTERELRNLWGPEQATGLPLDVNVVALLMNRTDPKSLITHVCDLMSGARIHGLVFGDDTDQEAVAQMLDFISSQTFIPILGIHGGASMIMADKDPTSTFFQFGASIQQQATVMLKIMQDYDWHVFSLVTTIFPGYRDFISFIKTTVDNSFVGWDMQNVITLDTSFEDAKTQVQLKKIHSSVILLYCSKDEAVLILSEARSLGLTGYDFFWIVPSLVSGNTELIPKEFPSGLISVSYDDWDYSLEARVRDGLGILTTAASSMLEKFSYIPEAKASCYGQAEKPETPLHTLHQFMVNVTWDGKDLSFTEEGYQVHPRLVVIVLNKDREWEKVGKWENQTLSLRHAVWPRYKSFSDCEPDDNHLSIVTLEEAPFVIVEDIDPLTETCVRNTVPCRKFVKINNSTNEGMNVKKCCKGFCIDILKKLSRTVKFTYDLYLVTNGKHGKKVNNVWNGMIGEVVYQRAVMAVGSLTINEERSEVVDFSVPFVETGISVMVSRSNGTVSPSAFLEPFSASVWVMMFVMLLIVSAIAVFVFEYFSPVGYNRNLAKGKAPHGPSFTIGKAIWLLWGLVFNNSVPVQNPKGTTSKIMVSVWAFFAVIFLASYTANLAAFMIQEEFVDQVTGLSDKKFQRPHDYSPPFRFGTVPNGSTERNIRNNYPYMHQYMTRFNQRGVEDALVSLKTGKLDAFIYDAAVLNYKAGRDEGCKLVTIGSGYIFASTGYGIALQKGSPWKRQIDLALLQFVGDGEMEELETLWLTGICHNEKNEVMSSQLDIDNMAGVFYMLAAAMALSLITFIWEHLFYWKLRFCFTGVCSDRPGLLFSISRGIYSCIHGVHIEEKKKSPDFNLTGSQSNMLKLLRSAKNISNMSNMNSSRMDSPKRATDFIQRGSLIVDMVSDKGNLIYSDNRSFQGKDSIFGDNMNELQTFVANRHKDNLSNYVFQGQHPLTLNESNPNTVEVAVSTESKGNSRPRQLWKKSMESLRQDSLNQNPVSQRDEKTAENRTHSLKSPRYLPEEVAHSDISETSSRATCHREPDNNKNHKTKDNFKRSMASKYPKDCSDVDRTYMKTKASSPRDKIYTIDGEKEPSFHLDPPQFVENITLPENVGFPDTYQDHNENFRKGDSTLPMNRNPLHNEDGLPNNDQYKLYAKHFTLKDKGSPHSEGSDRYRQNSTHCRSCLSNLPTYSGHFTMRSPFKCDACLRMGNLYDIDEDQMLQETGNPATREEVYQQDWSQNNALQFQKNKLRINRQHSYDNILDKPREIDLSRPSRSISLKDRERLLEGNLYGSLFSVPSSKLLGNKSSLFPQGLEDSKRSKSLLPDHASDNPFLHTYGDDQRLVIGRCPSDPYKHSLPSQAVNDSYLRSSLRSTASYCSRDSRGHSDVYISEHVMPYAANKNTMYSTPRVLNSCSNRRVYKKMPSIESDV
# ASSAY_COMMENT: NMDA receptor two-electrode voltage clamp in oocytes at saturated drug concentration
# Type: cell-based
# STATED_CONDITIONS: drug with glutamate and glycine; percent of control agonist peak; mean ±SEM, 5-6 oocytes; saturated drug

>  <MOLECULE>
CCCCCCCCCC(C)=O [2-undecanone]

>  <TEST_SYSTEM>
NMDA (NR1/NR2A) receptors (Rattus norvegicus, UniProt P35439+Q00959)

>  <NMDA % Agonist Effect, %>
98

$$$$
>  <MOLECULE>
C#CCCCC [1-hexyne]

>  <TEST_SYSTEM>
NMDA (NR1/NR2A) receptors (Rattus norvegicus, UniProt P35439+Q00959)

>  <NMDA % Agonist Effect, %>
41

$$$$
>  <MOLECULE>
CCCCCCS [1-hexanethiol]

>  <TEST_SYSTEM>
NMDA (NR1/NR2A) receptors (Rattus norvegicus, UniProt P35439+Q00959)

>  <NMDA % Agonist Effect, %>
102

$$$$
>  <MOLECULE>
C1CCCC1 [cyclopentane]

>  <TEST_SYSTEM>
NMDA (NR1/NR2A) receptors (Rattus norvegicus, UniProt P35439+Q00959)

>  <NMDA % Agonist Effect, %>
83

$$$$
>  <MOLECULE>
CCCCCCSCC [1-(ethylthio)-hexane]

>  <TEST_SYSTEM>
NMDA (NR1/NR2A) receptors (Rattus norvegicus, UniProt P35439+Q00959)

>  <NMDA % Agonist Effect, %>
87

$$$$
>  <MOLECULE>
CCCCCCCCCCO [1-decanol]

>  <TEST_SYSTEM>
NMDA (NR1/NR2A) receptors (Rattus norvegicus, UniProt P35439+Q00959)

>  <NMDA % Agonist Effect, %>
70

$$$$
>  <MOLECULE>
C=CCCC [1-pentene]

>  <TEST_SYSTEM>
NMDA (NR1/NR2A) receptors (Rattus norvegicus, UniProt P35439+Q00959)

>  <NMDA % Agonist Effect, %>
69

$$$$
>  <MOLECULE>
CCCCCCCCCC(=O)OCC [ethyl decanoate]

>  <TEST_SYSTEM>
NMDA (NR1/NR2A) receptors (Rattus norvegicus, UniProt P35439+Q00959)

>  <NMDA % Agonist Effect, %>
98

$$$$
>  <MOLECULE>
CCc1cccc(CC)c1 [1,3-diethylbenzene]

>  <TEST_SYSTEM>
NMDA (NR1/NR2A) receptors (Rattus norvegicus, UniProt P35439+Q00959)

>  <NMDA % Agonist Effect, %>
101

$$$$
>  <MOLECULE>
CCCCC [pentane]

>  <TEST_SYSTEM>
NMDA (NR1/NR2A) receptors (Rattus norvegicus, UniProt P35439+Q00959)

>  <NMDA % Agonist Effect, %>
94

$$$$
>  <MOLECULE>
CCCCCCF [1-fluorohexane]

>  <TEST_SYSTEM>
NMDA (NR1/NR2A) receptors (Rattus norvegicus, UniProt P35439+Q00959)

>  <NMDA % Agonist Effect, %>
101

$$$$
>  <MOLECULE>
C=CCCCC [1-hexene]

>  <TEST_SYSTEM>
NMDA (NR1/NR2A) receptors (Rattus norvegicus, UniProt P35439+Q00959)

>  <NMDA % Agonist Effect, %>
97

$$$$
>  <MOLECULE>
CCCCCCCCF [1-fluoroctane]

>  <TEST_SYSTEM>
NMDA (NR1/NR2A) receptors (Rattus norvegicus, UniProt P35439+Q00959)

>  <NMDA % Agonist Effect, %>
98

$$$$
>  <MOLECULE>
CCCCCCOCCCCCC [dihexylether]

>  <TEST_SYSTEM>
NMDA (NR1/NR2A) receptors (Rattus norvegicus, UniProt P35439+Q00959)

>  <NMDA % Agonist Effect, %>
112

$$$$
>  <MOLECULE>
CCCCCCC(=O)OCC [ethyl heptanoate]

>  <TEST_SYSTEM>
NMDA (NR1/NR2A) receptors (Rattus norvegicus, UniProt P35439+Q00959)

>  <NMDA % Agonist Effect, %>
78

$$$$
>  <MOLECULE>
CCCCCF [1-fluoropentane]

>  <TEST_SYSTEM>
NMDA (NR1/NR2A) receptors (Rattus norvegicus, UniProt P35439+Q00959)

>  <NMDA % Agonist Effect, %>
76

$$$$
>  <MOLECULE>
CCCCCC [hexane]

>  <TEST_SYSTEM>
NMDA (NR1/NR2A) receptors (Rattus norvegicus, UniProt P35439+Q00959)

>  <NMDA % Agonist Effect, %>
100

$$$$
>  <MOLECULE>
CCCCCCCCCCCCO [1-dodecanol]

>  <TEST_SYSTEM>
NMDA (NR1/NR2A) receptors (Rattus norvegicus, UniProt P35439+Q00959)

>  <NMDA % Agonist Effect, %>
98

$$$$
>  <MOLECULE>
C#CCCCCC [1-heptyne]

>  <TEST_SYSTEM>
NMDA (NR1/NR2A) receptors (Rattus norvegicus, UniProt P35439+Q00959)

>  <NMDA % Agonist Effect, %>
68

$$$$
>  <MOLECULE>
Cc1cccc(C)c1 [1,3-dimethylbenzene]

>  <TEST_SYSTEM>
NMDA (NR1/NR2A) receptors (Rattus norvegicus, UniProt P35439+Q00959)

>  <NMDA % Agonist Effect, %>
58

$$$$
>  <MOLECULE>
CCCCCCCCCCCCCCCCCCN [1-octadecanamine]

>  <TEST_SYSTEM>
NMDA (NR1/NR2A) receptors (Rattus norvegicus, UniProt P35439+Q00959)

>  <NMDA % Agonist Effect, %>
73

$$$$
>  <MOLECULE>
CCCCCCCCCCCO [1-undecanol]

>  <TEST_SYSTEM>
NMDA (NR1/NR2A) receptors (Rattus norvegicus, UniProt P35439+Q00959)

>  <NMDA % Agonist Effect, %>
101

$$$$
>  <MOLECULE>
CCCCCCCCCCCCCCCCCCCCN [1-eicosanamine]

>  <TEST_SYSTEM>
NMDA (NR1/NR2A) receptors (Rattus norvegicus, UniProt P35439+Q00959)

>  <NMDA % Agonist Effect, %>
108

$$$$
>  <MOLECULE>
CCCCCOCCCCC [dipentylether]

>  <TEST_SYSTEM>
NMDA (NR1/NR2A) receptors (Rattus norvegicus, UniProt P35439+Q00959)

>  <NMDA % Agonist Effect, %>
97

$$$$
>  <MOLECULE>
C1CCCCC1 [cyclohexane]

>  <TEST_SYSTEM>
NMDA (NR1/NR2A) receptors (Rattus norvegicus, UniProt P35439+Q00959)

>  <NMDA % Agonist Effect, %>
101

$$$$
>  <MOLECULE>
CCCCCCCC=O [octanal]

>  <TEST_SYSTEM>
NMDA (NR1/NR2A) receptors (Rattus norvegicus, UniProt P35439+Q00959)

>  <NMDA % Agonist Effect, %>
71

$$$$
>  <MOLECULE>
CCCCCCCCCC=O [decanal]

>  <TEST_SYSTEM>
NMDA (NR1/NR2A) receptors (Rattus norvegicus, UniProt P35439+Q00959)

>  <NMDA % Agonist Effect, %>
97

$$$$
>  <MOLECULE>
CCCCCCCCCCC(C)=O [2-dodecanone]

>  <TEST_SYSTEM>
NMDA (NR1/NR2A) receptors (Rattus norvegicus, UniProt P35439+Q00959)

>  <NMDA % Agonist Effect, %>
97

$$$$
>  <MOLECULE>
CCCCCCCCSCC [1-(ethylthio)-octane]

>  <TEST_SYSTEM>
NMDA (NR1/NR2A) receptors (Rattus norvegicus, UniProt P35439+Q00959)

>  <NMDA % Agonist Effect, %>
101

$$$$
>  <MOLECULE>
CCCCCCCCCCC=O [undecanal]

>  <TEST_SYSTEM>
NMDA (NR1/NR2A) receptors (Rattus norvegicus, UniProt P35439+Q00959)

>  <NMDA % Agonist Effect, %>
97

$$$$
>  <MOLECULE>
C#CCCCCCC [1-octyne]

>  <TEST_SYSTEM>
NMDA (NR1/NR2A) receptors (Rattus norvegicus, UniProt P35439+Q00959)

>  <NMDA % Agonist Effect, %>
96

$$$$
>  <MOLECULE>
CCCC [butane]

>  <TEST_SYSTEM>
NMDA (NR1/NR2A) receptors (Rattus norvegicus, UniProt P35439+Q00959)

>  <NMDA % Agonist Effect, %>
7

$$$$
>  <MOLECULE>
CCCCCCCCC=O [nonanal]

>  <TEST_SYSTEM>
NMDA (NR1/NR2A) receptors (Rattus norvegicus, UniProt P35439+Q00959)

>  <NMDA % Agonist Effect, %>
104

$$$$
>  <MOLECULE>
CCCCCCCCC(C)=O [2-decanone]

>  <TEST_SYSTEM>
NMDA (NR1/NR2A) receptors (Rattus norvegicus, UniProt P35439+Q00959)

>  <NMDA % Agonist Effect, %>
81

$$$$
>  <MOLECULE>
CCCCCCCC(=O)OCC [ethyl octanoate]

>  <TEST_SYSTEM>
NMDA (NR1/NR2A) receptors (Rattus norvegicus, UniProt P35439+Q00959)

>  <NMDA % Agonist Effect, %>
90

$$$$
>  <MOLECULE>
CCCCCS [1-pentanethiol]

>  <TEST_SYSTEM>
NMDA (NR1/NR2A) receptors (Rattus norvegicus, UniProt P35439+Q00959)

>  <NMDA % Agonist Effect, %>
85

$$$$
